- study-target: UniProt P09619
- Sequence (P09619 33-1106): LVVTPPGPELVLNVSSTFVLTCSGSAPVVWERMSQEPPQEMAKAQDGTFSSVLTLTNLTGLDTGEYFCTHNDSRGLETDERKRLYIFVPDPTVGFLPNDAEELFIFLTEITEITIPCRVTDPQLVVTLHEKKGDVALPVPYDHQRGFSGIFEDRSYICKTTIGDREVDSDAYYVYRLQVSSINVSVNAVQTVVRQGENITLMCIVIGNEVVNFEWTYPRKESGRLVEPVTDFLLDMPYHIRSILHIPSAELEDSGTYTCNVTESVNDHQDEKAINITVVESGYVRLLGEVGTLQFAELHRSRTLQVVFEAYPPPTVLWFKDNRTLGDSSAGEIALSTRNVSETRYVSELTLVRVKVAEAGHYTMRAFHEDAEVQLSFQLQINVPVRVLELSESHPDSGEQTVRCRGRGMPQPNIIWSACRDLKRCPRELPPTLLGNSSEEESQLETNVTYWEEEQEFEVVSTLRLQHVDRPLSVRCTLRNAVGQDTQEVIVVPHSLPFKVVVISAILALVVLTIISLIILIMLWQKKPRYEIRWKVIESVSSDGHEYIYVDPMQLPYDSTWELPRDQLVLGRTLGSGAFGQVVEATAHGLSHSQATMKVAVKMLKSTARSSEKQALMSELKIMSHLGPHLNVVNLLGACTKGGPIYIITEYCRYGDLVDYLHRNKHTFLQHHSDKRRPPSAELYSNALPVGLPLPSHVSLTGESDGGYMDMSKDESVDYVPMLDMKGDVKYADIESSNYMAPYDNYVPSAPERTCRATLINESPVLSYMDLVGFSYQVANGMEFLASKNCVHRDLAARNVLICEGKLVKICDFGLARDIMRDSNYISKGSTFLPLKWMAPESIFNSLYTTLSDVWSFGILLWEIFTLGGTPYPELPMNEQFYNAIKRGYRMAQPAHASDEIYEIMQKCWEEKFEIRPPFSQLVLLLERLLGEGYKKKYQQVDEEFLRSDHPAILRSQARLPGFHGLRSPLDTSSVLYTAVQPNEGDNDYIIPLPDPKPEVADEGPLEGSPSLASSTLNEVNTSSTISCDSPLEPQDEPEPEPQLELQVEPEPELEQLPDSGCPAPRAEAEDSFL
quantity-kind: pKd
Kindly note that pKd refers to -log10 of the concentration in mol/L and answer with the value alone.

Measured pKd (UniProt P09619), entry NCC(N)C(=O)Nc1ccc(-c2nc3ccccc3s2)cc1 (stereo not shown) : 5.40

* * *

- Test system: MCF-7
- test-protocol: CCK-8 cell proliferation/cytotoxicity assay
- Format: cell-based
- particulars: Homo sapiens, MCF7; MCF-7, 24 h
quantity-kind: IC50 (µM)
All answers are understood in µM, so give the number only.

Recorded IC50 (compound NCC(N)C(=O)Nc1ccc(-c2nc3ccccc3s2)cc1 (stereo not shown) [MBP-11901] ): 65.9
